subject.of.test: T1, human CCK-B receptor (human, UniProt P32239 1-447)
T1 sequence (looked up): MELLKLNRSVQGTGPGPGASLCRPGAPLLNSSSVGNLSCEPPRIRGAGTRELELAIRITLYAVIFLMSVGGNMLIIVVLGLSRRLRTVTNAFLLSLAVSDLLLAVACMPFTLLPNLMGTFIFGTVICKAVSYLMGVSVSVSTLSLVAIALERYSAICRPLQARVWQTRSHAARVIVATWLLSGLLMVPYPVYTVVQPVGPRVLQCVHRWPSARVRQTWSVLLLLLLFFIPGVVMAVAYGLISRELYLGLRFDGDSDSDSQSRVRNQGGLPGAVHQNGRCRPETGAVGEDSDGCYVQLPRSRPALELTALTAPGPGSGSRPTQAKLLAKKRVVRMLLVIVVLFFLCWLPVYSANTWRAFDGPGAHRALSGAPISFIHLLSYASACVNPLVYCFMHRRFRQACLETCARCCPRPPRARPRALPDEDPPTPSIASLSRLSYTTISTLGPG
experiment.summary: cell-based or functional assay
Bridge positions count the residues as written; N and C are the ends. Square brackets hold non-standard residues; d marks the D form. Ends that are not written are not given here. Orn = NCCC[C@H](N)C(=O)O
measurement.label: hCCK-B R EC50 (p-ERK) (nM)
Write it as a number; the unit nM goes unstated.

Recorded results for 4 binders are shown here.
HGEGTFTSDLSKQMEEEAVKLFIEWLKN[Peg3][Peg3]YGWLDF-NH2 (lactam 20-24) [Side chain-cyclo([Lys20,Glu24]Exendin-4(1-28)-Peg3-Peg3-[Leu4]Gastrin6] ... 4
HGEGTFTSDLSRYLEKEAVRLFIEFLR[Peg3]YGWLDF-NH2 [[Arg12,27,Leu14,Lys16,Phe25,Tyr13]Exendin-4(1-27)-Peg3-[Leu4]Gastrin6] ... 26
HGEGTFTSELSKYLEEEAVRLFIEFLK[Peg3][Peg3]YGFLDF-NH2 [[Glu9,Leu14,Phe25,Tyr13]Exendin-4(1-27)-Peg3-Peg3-[Leu4,Phe3]Gastrin6] ... 1300
HGEGTFTSDLSKQLEEEAVRLFIEWLKNYGXLDF (1Nal (1-naphthylalanine) at position 3 of the Gastrin6 moiety; C-terminal amide) [[Leu14]Exendin-4(1-28)-[1Nal3,Leu4]Gastrin6] ... 270

Attention now turns to another entry.
Data request: Indicate the recorded hCCK-B R EC50 (p-ERK) value for this binder: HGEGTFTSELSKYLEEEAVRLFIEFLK[Orn][Peg3]YGWLDF-NH2 [[Glu9,Leu14,Phe25,Tyr13]Exendin-4(1-27)-Orn-Peg3-[Leu4]Gastrin6]
Data returned: 100
